Assay: Drug metabolism in Agxt-knockout C57BL/6 mouse assessed as LH1513 concentration in urine at 150 micromol/kg, po administered as triester prodrug and measured after 8 hrs
Type: ADME, organism-based
Conditions: in vivo, dose 150 µmol/kg, read-out: Ct
measure_name: concentration

INSERT INTO assay_data (structure_as_smiles, recorded_result) VALUES
  ('O=C([O-])C(=O)NCCCC[C@H](NC(=O)C(=O)[O-])C(=O)[O-].[Na+].[Na+].[Na+]', '~30 µM');
